Across several studies, compounds have been characterized by their pIC50 on Rho-associated protein kinase 1 (Homo sapiens); a selection follows.
pIC50 is defined as minus the log10 of a concentration measured in mol/L.

Short answer on Rho-associated protein kinase 1 (Homo sapiens) for COc1cc(C(=O)NC[C@@H](C)c2ccccc2)ccc1-c1cn[nH]c1 , pIC50: 7.47

Short answer on Rho-associated protein kinase 1 (Homo sapiens) for O=C(c1cc2ccc(-c3nccc(Nc4ccc(-c5cn[nH]c5)cc4)n3)cc2[nH]1)N1CCOC[C@H]1CO , pIC50: 5.55

Short answer on Rho-associated protein kinase 1 (Homo sapiens) for COc1cc(NC(=O)[C@@H](N)Cc2csc3ccccc23)ccc1-c1cn[nH]c1 , pIC50: 7.50

Short answer on Rho-associated protein kinase 1 (Homo sapiens) for COc1cc(C(=O)NCc2c(F)cccc2Cl)ccc1-c1cn[nH]c1 , pIC50: 7.93

Short answer on Rho-associated protein kinase 1 (Homo sapiens) for COc1cccc(C2(NC(=O)c3cc(-c4ccc5[nH]nc(C)c5c4)ccn3)CCNC2)c1 (centres unmarked) , pIC50: 6.57

Short answer on Rho-associated protein kinase 1 (Homo sapiens) for COc1cc(C(=O)NC(C)c2ccccc2)ccc1-c1cn[nH]c1 (centres unmarked) , pIC50: 7.98
